Source of measurements: patent US12662541B2

Molecular target: T1, rhEphA5 antigen (Homo sapiens, UniProt P54756)
T1 construct: purchased R and D systems 3036-A5
Test: ka (1/Ms)
parameter measured: ka (M⁻¹ s⁻¹)
The figure you give is taken to be in M⁻¹ s⁻¹; do not add the unit.

Q: Which ka reading was recorded for the molecule VH3/VK3: humanized anti-EphA5 antibody, VH SEQ ID NO:4, VL SEQ ID NO:11 (antibody, V domains shown) VH: EVQLVESGGGLVQPGGSLKLSCAASGFTFSTFGIHWVRQAPGKGLEWVAYISGASTTIYYADTVKGRFTISRDNSKNTLYLQMNSLRSEDTAMYYCARYGTSFPYGLDYWGQGTLVTVSS VL: DIVMTQSPDSLAVSLGERATINCKASQSVDYDGDSYMNWYQQKPGKAPKLLIYGASNLESGIPDRFSGSGSGTDFTLTISRLEPEDAAVYYCQQSNEDPFTFGQGTKLEIK ?
Result: 1.32e+06
